Molecular target: hFXR (Homo sapiens, UniProt Q96RI1)
Sequence (Q96RI1 whole entry): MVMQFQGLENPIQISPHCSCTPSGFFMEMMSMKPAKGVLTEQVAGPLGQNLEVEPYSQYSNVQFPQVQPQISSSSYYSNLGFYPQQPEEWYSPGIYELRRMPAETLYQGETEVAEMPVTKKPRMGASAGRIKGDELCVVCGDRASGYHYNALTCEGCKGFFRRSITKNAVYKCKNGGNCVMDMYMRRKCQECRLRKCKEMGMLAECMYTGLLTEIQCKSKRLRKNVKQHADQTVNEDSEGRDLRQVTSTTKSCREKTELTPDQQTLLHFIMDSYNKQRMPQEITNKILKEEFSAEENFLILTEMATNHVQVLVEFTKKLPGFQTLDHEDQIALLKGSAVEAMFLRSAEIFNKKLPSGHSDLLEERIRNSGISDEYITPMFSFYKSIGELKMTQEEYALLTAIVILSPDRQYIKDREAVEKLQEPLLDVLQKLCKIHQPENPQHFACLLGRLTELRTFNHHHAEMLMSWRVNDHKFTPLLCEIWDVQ
Sequence (P19793 whole entry partner): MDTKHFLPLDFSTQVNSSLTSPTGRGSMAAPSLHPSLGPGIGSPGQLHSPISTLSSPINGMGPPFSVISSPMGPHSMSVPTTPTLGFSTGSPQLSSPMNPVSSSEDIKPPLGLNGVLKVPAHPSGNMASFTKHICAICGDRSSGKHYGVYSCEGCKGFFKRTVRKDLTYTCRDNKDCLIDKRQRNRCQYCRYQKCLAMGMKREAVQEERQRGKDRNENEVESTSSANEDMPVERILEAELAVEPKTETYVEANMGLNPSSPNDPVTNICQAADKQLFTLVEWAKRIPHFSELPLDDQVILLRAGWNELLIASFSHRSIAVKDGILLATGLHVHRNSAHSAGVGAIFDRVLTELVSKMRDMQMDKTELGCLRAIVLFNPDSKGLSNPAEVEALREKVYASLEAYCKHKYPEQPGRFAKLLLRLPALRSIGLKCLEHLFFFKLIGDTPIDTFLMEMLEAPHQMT
Assay: In Vitro FXR Assay (TK): TK-ECRE-luc reporter in transfected CV-1 cells
Conditions: CV-1 cells transfected with hFXR, hRXR, pCMX-YFP, 18 hrs incubation, luminescence
pEC50: −log10 of the molar value.
measure: pEC50

1) COc1ccc([C@H]2CC[C@H](CN(c3cc(-c4cnn(C(C)(C)C)c4)ccn3)C(=O)[C@H]3CC[C@H](OC(=O)N4CCC(O)CC4)CC3)CC2)cc1C ... 6.00 to 8.00
2) COc1ccc(C23CCC(CN(c4cc(-c5ccn(C(C)(C)C)n5)ccn4)C(=O)[C@H]4CC[C@H](OC(=O)N5CC(O)C5)CC4)(CC2)CC3)cc1C ... 6.00 to 8.00
3) COc1ccc(C23CCC(CN(c4cc(-c5cnn(C(C)(C)C)c5)ccn4)C(=O)[C@H]4CC[C@H](OC(=O)NCCO)CC4)(CC2)CC3)cc1C ... ≥ 8.00
4) COc1ccc(C23CCC(CN(c4cc(-c5coc(C(C)(C)C)n5)ccn4)C(=O)[C@H]4CC[C@H](OC(=O)NCCC(C)(C)O)CC4)(CC2)CC3)cc1C ... ≥ 8.00
5) COc1ccc(C23CCC(CN(c4cc(-c5cnn(C(C)(C)C)c5)ccn4)C(=O)[C@H]4CC[C@H](OC(=O)N5CCC(O)C5)CC4)(CC2)CC3)cc1C (stereo partly shown) ... ≥ 8.00
6) COc1ccc(C23CCC(CN(c4cc(-c5cnn(C(C)(C)C)c5)ccn4)C(=O)[C@H]4CC[C@H](OC(=O)N5CC[C@H]5CO)CC4)(CC2)CC3)cc1C ... ≥ 8.00
7) COc1ccc(C23CCC(CN(c4cc(-c5cnn(C(C)(C)C)c5)ccn4)C(=O)[C@H]4CC[C@H](OC(=O)N5CC(O)C5)CC4)(CC2)CC3)cc1C ... ≥ 8.00
8) COc1ccc(C23CCC(CN(c4cc(-c5cnc(C(C)(C)C)s5)ccn4)C(=O)[C@H]4CC[C@H](OC(=O)NCCCO)CC4)(CC2)CC3)cc1C ... ≥ 8.00
9) COc1ccc(C23CCC(CN(c4cc(-c5coc(C(C)(C)C)n5)ccn4)C(=O)[C@H]4CC[C@H](OC(=O)N5CCC(O)CC5)CC4)(CC2)CC3)cc1C ... ≥ 8.00
10) COc1ccc(C23CCC(CN(c4cc(-c5cnn(C(C)(C)C)c5)ccn4)C(=O)[C@H]4CC[C@H](OC(=O)N5CC(C)(O)C5)CC4)(CC2)CC3)cc1C ... ≥ 8.00
11) COc1ccc(C23CCC(CN(c4cc(-c5cnc(C(C)(C)C)s5)ccn4)C(=O)[C@H]4CC[C@H](OC(=O)N5CC(OCCO)C5)CC4)(CC2)CC3)cc1C ... ≥ 8.00
12) CN(C)c1ccc(C23CCC(CN(c4cc(-c5cnn(C(C)(C)C)c5)ccn4)C(=O)[C@H]4CC[C@H](OC(=O)N5CC(O)C5)CC4)(CC2)CC3)cn1 ... 6.00 to 8.00
13) COc1ccc(C23CCC(CN(c4cc(-c5cnc(C(C)(C)C)s5)ccn4)C(=O)[C@H]4CC[C@H](OC(=O)NC5COC5)CC4)(CC2)CC3)cc1C ... ≥ 8.00
14) CCC(CC)(CC)n1cc(-c2ccnc(N(CC34CCC(c5ccc(OC)c(C)c5)(CC3)CC4)C(=O)[C@H]3CC[C@H](OC(=O)N4CC(O)C4)CC3)c2)cn1 ... 6.00 to 8.00
15) COc1ccc(C23CCC(CN(c4cc(-c5cnn(C(C)(C)C)c5)ccn4)C(=O)[C@H]4CC[C@H](OC(=O)NCCC(C)(C)O)CC4)(CC2)CC3)cc1C ... ≥ 8.00
16) COc1ccc(C23CCC(CN(c4nccc(-c5cnn(C(C)(C)C)c5)n4)C(=O)[C@H]4CC[C@H](OC(=O)N5CC(O)C5)CC4)(CC2)CC3)cc1C ... 6.00 to 8.00
17) COc1ccc(C23CCC(CN(c4cc(-c5cnn(C(C)(C)C)c5)ncn4)C(=O)[C@H]4CC[C@H](OC(=O)N5CC(O)C5)CC4)(CC2)CC3)cc1C ... 6.00 to 8.00
18) COc1ccc(C23CCC(CN(c4cc(-n5cnc(C(C)(C)C)c5)ccn4)C(=O)[C@H]4CC[C@H](OC(=O)N5CC(O)C5)CC4)(CC2)CC3)cc1C ... 6.00 to 8.00
19) COc1ccc(C23CCC(CN(c4cc(-c5cnn(C(C)(C)C)c5)ccn4)C(=O)[C@H]4CC[C@H](OC(=O)N5CCC(N(C)C)C5)CC4)(CC2)CC3)cc1C (stereo partly shown) ... ≥ 8.00
20) CCC(C)(C)n1cc(-c2ccnc(N(CC34CCC(c5ccc(OC)c(C)c5)(CC3)CC4)C(=O)[C@H]3CC[C@H](OC(=O)N4CCC(O)CC4)CC3)c2)cn1 ... ≥ 8.00
21) COc1ccc([C@H]2CC[C@H](CN(c3cc(-c4cnn(C(C)(C)C)c4)ccn3)C(=O)[C@H]3CC[C@H](OC(=O)N4CC(O)C4(C)C)CC3)CC2)cc1C (stereo partly shown) ... ≥ 8.00
22) COc1ccc(C23CCC(CN(c4cc(-c5coc(C(C)(C)C)n5)ccn4)C(=O)[C@H]4CC[C@H](OC(=O)N5CC(O)C5)CC4)(CC2)CC3)cc1C ... ≥ 8.00
